Molecular target: human ether-à-go-go-related gene (hERG) potassium channel (human, UniProt Q12809);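 further: peak tail current of the secondary pulse compared with the same well before compound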
Sequence (Q12809 whole entry, looked up): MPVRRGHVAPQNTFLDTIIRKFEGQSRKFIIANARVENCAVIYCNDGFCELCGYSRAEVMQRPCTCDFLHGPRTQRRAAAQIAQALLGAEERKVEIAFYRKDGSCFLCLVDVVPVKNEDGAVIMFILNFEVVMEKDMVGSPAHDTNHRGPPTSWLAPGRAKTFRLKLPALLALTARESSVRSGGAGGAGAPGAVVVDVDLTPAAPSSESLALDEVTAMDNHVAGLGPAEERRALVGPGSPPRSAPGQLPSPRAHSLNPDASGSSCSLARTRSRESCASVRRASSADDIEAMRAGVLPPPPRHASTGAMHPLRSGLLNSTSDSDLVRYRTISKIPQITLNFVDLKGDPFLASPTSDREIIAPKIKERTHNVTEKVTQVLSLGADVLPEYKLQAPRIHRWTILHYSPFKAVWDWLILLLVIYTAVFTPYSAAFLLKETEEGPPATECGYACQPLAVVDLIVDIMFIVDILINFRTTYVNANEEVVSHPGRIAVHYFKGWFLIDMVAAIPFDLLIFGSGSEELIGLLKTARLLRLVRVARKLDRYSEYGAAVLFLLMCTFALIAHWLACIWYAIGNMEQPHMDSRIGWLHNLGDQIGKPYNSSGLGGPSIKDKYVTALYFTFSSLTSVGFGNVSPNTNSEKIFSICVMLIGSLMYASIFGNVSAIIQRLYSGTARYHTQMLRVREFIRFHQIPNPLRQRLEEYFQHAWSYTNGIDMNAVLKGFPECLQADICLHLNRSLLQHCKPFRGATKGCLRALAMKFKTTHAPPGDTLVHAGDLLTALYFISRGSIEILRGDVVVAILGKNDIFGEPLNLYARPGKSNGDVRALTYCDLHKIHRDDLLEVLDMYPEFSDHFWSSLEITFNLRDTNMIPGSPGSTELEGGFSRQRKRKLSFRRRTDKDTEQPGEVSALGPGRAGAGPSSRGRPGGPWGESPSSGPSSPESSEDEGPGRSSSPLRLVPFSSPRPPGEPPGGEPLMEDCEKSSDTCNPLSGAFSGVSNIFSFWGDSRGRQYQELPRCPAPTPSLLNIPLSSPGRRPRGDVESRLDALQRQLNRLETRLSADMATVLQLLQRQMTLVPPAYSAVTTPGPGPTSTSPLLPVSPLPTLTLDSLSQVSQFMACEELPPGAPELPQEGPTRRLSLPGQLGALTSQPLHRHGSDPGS
Experiment: primary screen, population patch clamp on CHO cells stably expressing hERG; higher = less effect of the substance
Out of some 310,000 compounds screened, about 14,000 (4.5%) showed an effect of 50% or more. Effects have a minus sign here. The list comes from a sample in which strong results are over-represented; it also holds close analogues and randomly drawn compounds.
Each entry below carries its recorded hERG current change (%, negative = inhibition) at 10uM.
endpoint_name: hERG current change (%, negative = inhibition) at 10uM (%)

compound	display_unit	measured_number
O=C(Nc1cccc(-c2nnc(-c3ccccc3)o2)c1)C1CCCO1 (stereo not shown)	%	-66.5
CC(Oc1ccc(F)cc1F)C(=O)NNC(=S)NCC1CCCO1 (stereo not shown)	%	9.12
CCOc1ccc(-c2n[nH]c(C)c2Oc2ccc(OC)cc2)c(O)c1	%	-6.31
CCN(CC)S(=O)(=O)c1ccc(C(=O)OCC(=O)NCCN2C(=O)CSC2=O)cc1	%	-14.4
COC(=O)c1cc(N2CCNCC2)nc2ccccc12.Cl	%	-17
O=C(Nc1ccc(-c2nnc(-c3ccccc3)o2)cc1)C1CCCO1 (stereo not shown)	%	-13.3
O=C(O)c1ccc(S(=O)(=O)c2ccc(Sc3ccc(C(=O)O)c(C(=O)O)c3)cc2)cc1	%	23.3
O=C(Nc1cccc(-c2nnc(-c3ccccc3)o2)c1)C1CC1	%	-19.3
O=[N+]([O-])c1ccc(N2CCCCC2)c(Cl)c1N1CCCCC1	%	3.77
O=C(Nc1ccc(-n2cnnn2)cc1)C1CCCN1C(=O)Nc1ccc(Br)cc1 (stereo not shown)	%	-79.9
